The origin of these recorded values is the supplement of paper PMC4466140.

This listing pairs binders with measured SPOT peptide array binding signal intensity.
- experimentalSystem: SpBzz1-D2
- method: SPOT peptide array binding signal intensity (averaged, normalized) (arbitrary units (background-subtracted, floor 0; scale differs between SH3 domains)); higher = stronger binding of the SH3 domain to the peptide
Output spec: single numeric token, no unit.

Example entries and their recorded answers appear below.
* DAPASKPSVPPRNYF | 0.5
* HPRFVSPRIPSRIVK | 1
* TKHKAPPPPPPTAET | 6.25
* PIVPSSPAPPLPLSG | 1.5
* PKMLPIPSKPTLFDL | 20.5
* LFMKGTPEFPKSGFS | 16.5
* ILARAILTIPRVLDK | 1.5
* LYKRKPILLPDPKPL | 0.5

Okay, next one:
Look at this binder and give its reported SPOT peptide array binding signal intensity. QQNRPLPQLPNRNNR
1.5
